The measurements presented in this section are drawn from paper PMC6385122.

Counter-ions that a name gives are not always drawn.
VALUE_KIND: melting point

Record excerpt, results attached:
compound="Clc1ccc(C/N=C(\\c2ccc(Cl)cc2)N2CCNCC2)cc1 (as salt: hydrochloride)" recorded_value="157 to 159 °C"
compound="Clc1ccc(C/N=C(\\c2ccccc2Cl)N2CCNCC2)cc1 (as salt: hydrochloride)" recorded_value="181 to 183 °C"
compound="c1ccc(/C(=N\\Cc2cccc3ccccc23)N2CCNCC2)cc1 (as salt: hydrochloride)" recorded_value="187 to 189 °C"
compound="O=[N+]([O-])c1cccc2c(/C(=N\\Cc3ccccc3)N3CCNCC3)cccc12 (as salt: hydrochloride)" recorded_value="173 to 175 °C"
compound="O=[N+]([O-])c1ccc(/C(=N\\Cc2ccc(Cl)cc2)N2CCNCC2)cc1 (as salt: hydrochloride)" recorded_value="172 to 174 °C"
compound="Fc1ccc(/C(=N\\Cc2cccc3ccccc23)N2CCNCC2)cc1 (as salt: hydrochloride)" recorded_value="193 to 195 °C"

// below: melting point requested for another compound
Input line: Which melting point is listed for COc1ccc(/C(=N\Cc2ccccc2)N2CCNCC2)cc1.Cl ?
Output line: 195 to 197 °C
